Target: Human glucagon receptor (human, UniProt P47871 26-477)
Experiment: cell-based or functional assay
Where no end group is shown, it is not given here. [ ]: non-standard residue; d: D form. αMePhe(2-F) = C[C@](N)(Cc1ccccc1F)C(=O)O; Ac3c = NC1(C(=O)O)CC1; Aib = CC(C)(N)C(=O)O
endpoint-name: cAMP production with saturated glucagon peptide; test compound 10 nM (pmol/ml/µg prt)

[[record]]
binder = "HSQGTFTSD[Bip(OMe)][Bip(2F)] (not fully specified (C-terminus); printed as HSQGTFTSD-Bip(OMe)-Bip(2F)) [Seq. ID. No. 7: HSQGTFTSD-Bip(OMe)-Bip(2F)]"
endpoint_result = 5

[[record]]
binder = "H[Aib]QGTFTSD[Bip(OMe)][Bip(2Me)] [Seq. ID. No. 13: H-Aib-QGTFTSD-Bip(OMe)-Bip(2Me)]"
endpoint_result = 8

[[record]]
binder = "HSQGTFTSD[Bip(OMe)][Bip(2CF3)] (not fully specified (C-terminus); printed as HSQGTFTSD-Bip(OMe)-Bip(2CF3)) [Seq. ID. No. 8: HSQGTFTSD-Bip(OMe)-Bip(2CF3)]"
endpoint_result = 2

[[record]]
binder = "HXQGTXTSDXX (Aib at 2; α-Me-2F-Phe at 6; Bip(OMe) at 10; Bip(2F) at 11) [Seq. ID. No. 31: H-Aib-QGT-(α-Me-2F-Phe)-TSD-Bip(OMe)-Bip(2F)]"
endpoint_result = 5

[[record]]
binder = "HXQGTXTSDXX (Aib at 2; α-Me-2F-Phe at 6; Bip(OMe) at 10; Bip(2Me) at 11) [Seq. ID. No. 29: H-Aib-QGT-(α-Me-2F-Phe)-TSD-Bip(OMe)-Bip(2Me)]"
endpoint_result = 8

[[record]]
binder = "H[Ac3c]QGTFTSD[Bip(OMe)][Bip(2F)] [Seq. ID. No. 19: H-(ACP)-QGTFTSD-Bip(OMe)-Bip(2F)]"
endpoint_result = 3

[[record]]
binder = "H[Aib]QGTFTSD[Bip(OMe)][Bip(2F)] [Seq. ID. No. 15: H-Aib-QGTFTSD-Bip(OMe)-Bip(2F)]"
endpoint_result = 5

[[record]]
binder = "HAQGT[αMePhe(2-F)]TSD[Bip(OMe)][Bip(2F)] [Seq. ID. No. 27: HAQGT-(α-Me-2F-Phe)-TSD-Bip(OMe)-Bip(2F)]"
endpoint_result = 11

[[record]]
binder = "H[Ac3c]QGTFTSD[Bip(OMe)][Bip(2CF3)] (not fully specified) [Seq. ID. No. 20: H-(ACP)-QGTFTSD-Bip(OMe)-Bip(2CF3)]"
endpoint_result = 2

[[record]]
binder = "H[Ac3c]QGTFTSD[Bip(OMe)][Bip(2Me)] [Seq. ID. No. 17: H-(ACP)-QGTFTSD-Bip(OMe)-Bip(2Me)]"
endpoint_result = 0

[[record]]
binder = "HAQGT[αMePhe(2-F)]TSD[Bip(OMe)][Bip(2Me)] [Seq. ID. No. 25: HAQGT-(α-Me-2F-Phe)-TSD-Bip(OMe)-Bip(2Me)]"
endpoint_result = 16

[[record]]
binder = "HSQGTXTSDXX (α-Me-2F-Phe at 6; Bip(OMe) at 10; Bip(Pyr) at 11) [Seq. ID. No. 22: HSQGT-(α-Me-2F-Phe)-TSD-Bip(OMe)-Bip(Pyr)]"
endpoint_result = 19

